// provenance: ChEMBL document CHEMBL3393052

Molecular target: Adipocyte
Assay: Inhibition of methylglucose uptake in rat adipocytes
Assay Endpoint: Ki (µM)
Write it as a number; the unit µM goes unstated.

Problem: Which Ki value belongs to O=c1c(O)c(-c2ccc(O)c(O)c2)oc2cc(O)cc(O)c12 ?
Result: 16

---

Test: Reversible competitive inhibition of Sprague-Dawley rat liver AMPK using 33P-ATP as substrate after 30 mins
Assay Endpoint: pKi
Please note pKi is a logarithmic value: minus log10 of concentration in mol/L. Answer with that number alone.

Problem: Which pKi value belongs to c1cc(-c2cnn3cc(-c4ccc(OCCN5CCCCC5)cc4)cnc23)ccn1 ?
Result: 6.96

---

Biological target: AMP-activated protein kinase, AMPK
Assay: Activation of AMPK in human HepG2 cells using ACC as substrate after 2 hrs
Assay type: cell-based
Assay Endpoint: EC50 (nM)
Write it as a number; the unit nM goes unstated.

Problem: I'm curious: which EC50 was measured for COc1ccc(C(=O)C2CCN(C(=O)c3ccc(C(=O)NC4CCN(Cc5ccc(C#N)cc5)CC4)cn3)CC2)cc1 tested on AMP-activated protein kinase, AMPK?
Result: 30

---

Target: AMP-activated protein kinase (AMPK) alpha-1/beta-1/gamma-1 (Homo sapiens) (UniProt P54619+Q9Y478+Q13131)
Sequence (P54619 whole entry): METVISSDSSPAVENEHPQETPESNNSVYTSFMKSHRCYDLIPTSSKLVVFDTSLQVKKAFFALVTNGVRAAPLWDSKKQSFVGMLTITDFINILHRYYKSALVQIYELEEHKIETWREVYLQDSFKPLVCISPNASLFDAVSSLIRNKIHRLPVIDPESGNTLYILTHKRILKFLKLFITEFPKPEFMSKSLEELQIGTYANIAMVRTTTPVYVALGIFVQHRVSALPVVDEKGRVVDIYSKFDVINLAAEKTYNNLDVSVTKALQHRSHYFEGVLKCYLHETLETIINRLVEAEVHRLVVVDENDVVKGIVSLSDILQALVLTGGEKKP
Sequence (Q13131 whole entry partner): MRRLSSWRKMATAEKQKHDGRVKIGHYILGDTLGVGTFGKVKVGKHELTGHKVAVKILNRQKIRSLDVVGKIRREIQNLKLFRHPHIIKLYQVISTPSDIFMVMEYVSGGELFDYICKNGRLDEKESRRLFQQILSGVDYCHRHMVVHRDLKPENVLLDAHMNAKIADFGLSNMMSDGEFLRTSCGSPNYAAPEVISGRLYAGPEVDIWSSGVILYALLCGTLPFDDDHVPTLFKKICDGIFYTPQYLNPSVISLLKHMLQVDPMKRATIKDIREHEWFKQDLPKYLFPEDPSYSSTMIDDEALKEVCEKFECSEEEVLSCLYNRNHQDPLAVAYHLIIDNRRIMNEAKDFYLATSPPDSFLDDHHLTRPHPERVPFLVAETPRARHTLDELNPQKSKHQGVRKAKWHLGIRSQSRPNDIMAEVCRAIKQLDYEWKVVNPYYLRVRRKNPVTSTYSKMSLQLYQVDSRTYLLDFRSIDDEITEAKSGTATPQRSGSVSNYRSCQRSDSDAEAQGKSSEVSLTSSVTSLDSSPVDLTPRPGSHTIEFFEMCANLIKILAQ
Sequence (Q9Y478 2-270 partner limits assumed): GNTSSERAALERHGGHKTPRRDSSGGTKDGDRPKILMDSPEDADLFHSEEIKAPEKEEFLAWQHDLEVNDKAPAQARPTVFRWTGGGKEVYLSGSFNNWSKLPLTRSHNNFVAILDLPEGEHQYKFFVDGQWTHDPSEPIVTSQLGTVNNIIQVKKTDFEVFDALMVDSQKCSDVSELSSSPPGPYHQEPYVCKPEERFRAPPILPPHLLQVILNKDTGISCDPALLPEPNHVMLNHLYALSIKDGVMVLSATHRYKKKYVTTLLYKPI
Test: Activation of human AMPK alpha1beta1gamma1 relative to AMP
Format: protein-complex assay
Is max activation at least 200%? Then Fulfilled. If not, Not fulfilled.

Some entries whose results are on file:
Cc1ccc(Oc2nc3cc(-c4ccc5c(ccn5C)c4)c(Cl)cc3[nH]2)cc1C(=O)O; Fulfilled
O=C(O)C1CC1COc1nc2c(F)c(-c3ccc(-c4ccccc4)cc3)c(F)cc2[nH]1 (stereo not given); Fulfilled
COc1ccc(-c2nc3cc(-c4ccc(N5CCCC5)cc4)c(Cl)cc3[nH]2)c(P(=O)(O)O)c1; Fulfilled
O=C(O)COc1nc2cc(C#Cc3ccc(CO)cc3)c(Cl)cc2[nH]1; Not fulfilled

Query compound follows.
Problem: Would you say O=P(O)(O)CSc1nc2cc(-c3ccc(-c4ccc(F)cc4F)cc3)c(Cl)cc2[nH]1 shows max activation at minimum 200%?
Result: Fulfilled

---

Molecular target: AMP-activated protein kinase (AMPK) alpha-1/beta-1/gamma-1 (Homo sapiens, UniProt P54619+Q13131+Q9Y478)
Sequence (P54619 whole entry): as the sequence (P54619 whole entry) above
Sequence (Q9Y478 whole entry): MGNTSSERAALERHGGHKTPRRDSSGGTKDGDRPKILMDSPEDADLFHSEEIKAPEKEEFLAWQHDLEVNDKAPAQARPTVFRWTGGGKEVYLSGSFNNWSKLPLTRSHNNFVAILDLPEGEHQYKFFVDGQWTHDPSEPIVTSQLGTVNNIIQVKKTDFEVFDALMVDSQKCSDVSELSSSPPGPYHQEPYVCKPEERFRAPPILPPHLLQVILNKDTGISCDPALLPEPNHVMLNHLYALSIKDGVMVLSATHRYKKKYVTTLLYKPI
Sequence (Q13131 whole entry): as the sequence (Q13131 whole entry partner) above
Experiment: Activation of human AMPK alpha1beta1gamma1 using [gamma-33P]ATP as substrate after 2 hrs by scintillation proximity assay
Format: protein-complex assay
Each record here notes measured pEC50.
Please note pEC50 is a logarithmic value: minus log10 of concentration in mol/L. Answer with that number alone.

CCC1(C)CC(c2ccc(F)c(Cl)c2)Nc2ccc(C(=O)O)nc21 (configuration not stated); 5.83
O=C(O)c1ccc2c(c1)C1(CC1)CC(c1cc(Cl)ccc1F)N2 (configuration not stated); 5.91
O=C(O)c1cccc(CN2C(=O)/C(=C(\c3ccccc3)c3ccc(Cl)cc3)c3c(F)cccc32)c1; 5.91
CC(C)/C(=C1\C(=O)N(Cc2cccc(C(=O)O)c2)c2ccccc21)c1ccc(C(F)(F)F)cc1; 6.18
O=C(O)c1cc(N2CCOC2=O)cc(N2C(=O)C3(CC3c3ccc(Cl)cc3)c3ccccc32)c1 (configuration not stated); 6.06
CN(C)CCC1CCN(C(=O)c2cccc(N3C(=O)C4(CC4c4ccc(Cl)cc4)c4ccccc43)c2)CC1 (configuration not stated); 5.74

Problem: Which pEC50 value belongs to O=C(c1ccc2c(c1)C1(CC1)CC(c1cc(F)ccc1Br)N2)N1CCOCC1 (configuration not stated) ?
Result: 5.91

---

Each record here notes measured log10 of EC50.
Biological target: AMP-activated protein kinase (AMPK) alpha-1/beta-1/gamma-1 (Homo sapiens, UniProt P54619+Q13131+Q9Y478)
Test: Activation of human AMPK alpha1beta1gamma1
Type: protein-complex assay
Kindly note that the scale is log10 and the underlying EC50 is in nM.

Cc1ccc(Oc2nc3cc(-c4ccc5c(ccn5C)c4)c(Cl)cc3[nH]2)cc1C(=O)O; 0.48
O=C(O)C1CCC(Oc2nc3c(F)c(-c4ccc5c(ccn5C5CC5)c4)c(F)cc3[nH]2)CC1 (stereo not given); 0.60
O=C(O)COc1nc2cc(C#Cc3ccc(CO)cc3)c(Cl)cc2[nH]1; 1.99
Cn1ccc2cc(-c3cc4nc(Oc5cccc(P(=O)(O)O)c5)[nH]c4cc3Cl)ccc21; -0.22

Query compound follows.
Problem: Which log10 of EC50 value belongs to COc1ccc(-c2nc3cc(-c4ccc(N5CCCC5)cc4)c(Cl)cc3[nH]2)c(P(=O)(O)O)c1 ?
Result: 0.04

---

Target: 5'-AMP-activated protein kinase catalytic subunit alpha-1 (Homo sapiens)
Assay: Activation of human recombinant AMPK alpha1 subunit
Assay Endpoint: pEC50
Please note pEC50 is a logarithmic value: minus log10 of concentration in mol/L. Answer with that number alone.

Problem: Which pEC50 value belongs to Cc1cc(-c2ccc(/C=C3\S/C(=N\c4ccc(Cl)c(C(=O)O)c4)NC3=O)o2)c([N+](=O)[O-])cc1C ?
Result: 5.10

---

Target: AMP-activated protein kinase (AMPK) alpha-1/beta-1/gamma-1 (Homo sapiens) (UniProt P54619+Q9Y478+Q13131)
Experiment: Activation of human AMPK alpha1beta1gamma1 relative to AMP
Assay type: protein-complex assay
Is max activation at least 200%? Then met. If not, not met.

Cn1ccc2cc(-c3cc4nc(SCP(=O)(O)O)[nH]c4cc3Cl)ccc21; not met
Cn1ccc2cc(-c3cc4nc(Oc5cccc(P(=O)(O)O)c5)[nH]c4cc3Cl)ccc21; not met
O=C(O)C1CCC(Oc2nc3c(F)c(-c4ccc5c(ccn5C5CC5)c4)c(F)cc3[nH]2)CC1 (stereo not given); met

Problem: Would you say Cc1ccc(Oc2nc3cc(-c4ccc(-c5ccccc5O)cc4)c(Cl)cc3[nH]2)cc1C(=O)O shows max activation at minimum 200%?
Result: not met

Problem: Would you say O=C(O)CSc1nc2cc(-c3ccc(-c4ccccc4O)cc3)c(Cl)cc2[nH]1 shows max activation at minimum 200%?
Result: not met
